Biological target: T1, Human SIRPαV2 (CAA71403.1), Extracellular Domain + His-Tag (human, UniProt P78324 31-373)
T1 construct: also called huSIRPαV2; hSIRPαV2; not shown: His-Tag
T1 sequence (P78324 other isoform, or with tags, fused parts or gaps): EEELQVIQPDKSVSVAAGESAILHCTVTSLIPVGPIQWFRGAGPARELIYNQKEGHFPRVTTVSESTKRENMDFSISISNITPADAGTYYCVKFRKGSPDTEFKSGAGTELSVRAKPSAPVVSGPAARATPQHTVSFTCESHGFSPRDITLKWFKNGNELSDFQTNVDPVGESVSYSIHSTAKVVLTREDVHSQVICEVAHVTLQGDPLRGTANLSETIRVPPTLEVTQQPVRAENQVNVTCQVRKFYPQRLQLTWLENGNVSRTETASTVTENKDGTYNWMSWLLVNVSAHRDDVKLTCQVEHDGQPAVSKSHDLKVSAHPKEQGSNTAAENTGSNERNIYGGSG
Assay: SPR, antibody captured on Protein A/G, ECD-His analyte, 1:1 fit
quantity measured: koff (s⁻¹)
Give just the number in s⁻¹; leave the unit off.

**Query** Note koff for the binder shown: Antibody E12 (antibody, human IgG1, kappa, L234A L235A, V domains shown) VH: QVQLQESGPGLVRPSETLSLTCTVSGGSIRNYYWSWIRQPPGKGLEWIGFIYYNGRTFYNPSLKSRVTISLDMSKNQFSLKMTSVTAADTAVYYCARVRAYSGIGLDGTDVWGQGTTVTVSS VL: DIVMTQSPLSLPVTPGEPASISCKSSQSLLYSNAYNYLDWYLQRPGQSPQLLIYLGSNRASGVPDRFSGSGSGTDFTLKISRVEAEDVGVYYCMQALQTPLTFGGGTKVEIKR
**Result** 0.000709

**Query** Note koff for the binder shown: Antibody E2 (antibody, human IgG1, kappa, L234A L235A, V domains shown) VH: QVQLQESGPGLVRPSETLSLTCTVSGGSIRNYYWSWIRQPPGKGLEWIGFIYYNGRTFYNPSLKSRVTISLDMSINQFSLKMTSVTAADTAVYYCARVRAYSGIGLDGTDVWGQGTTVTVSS VL: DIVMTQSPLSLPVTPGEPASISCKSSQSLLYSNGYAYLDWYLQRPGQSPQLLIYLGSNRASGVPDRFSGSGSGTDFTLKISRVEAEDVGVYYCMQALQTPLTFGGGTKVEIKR
**Result** 0.000367

**Query** Note koff for the binder shown: Antibody E11 (antibody, human IgG1, kappa, L234A L235A, V domains shown) VH: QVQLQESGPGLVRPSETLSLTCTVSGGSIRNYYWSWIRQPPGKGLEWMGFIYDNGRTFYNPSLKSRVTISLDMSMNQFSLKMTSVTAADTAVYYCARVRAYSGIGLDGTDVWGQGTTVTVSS VL: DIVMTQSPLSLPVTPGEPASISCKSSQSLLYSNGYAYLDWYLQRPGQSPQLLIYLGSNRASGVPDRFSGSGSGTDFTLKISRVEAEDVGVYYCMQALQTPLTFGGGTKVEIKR
**Result** 0.000258

**Query** Note koff for the binder shown: Antibody E13 (antibody, human IgG1, kappa, L234A L235A, V domains shown) VH: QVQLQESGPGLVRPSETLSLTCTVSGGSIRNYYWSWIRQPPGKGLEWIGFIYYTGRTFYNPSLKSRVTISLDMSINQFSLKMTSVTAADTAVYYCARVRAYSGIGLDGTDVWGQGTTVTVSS VL: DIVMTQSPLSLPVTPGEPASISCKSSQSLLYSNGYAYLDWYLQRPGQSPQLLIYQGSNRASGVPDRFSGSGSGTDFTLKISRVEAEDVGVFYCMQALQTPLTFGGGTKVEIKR
**Result** 0.000338

**Query** Note koff for the binder shown: Antibody E14 (antibody, human IgG1, kappa, L234A L235A, V domains shown) VH: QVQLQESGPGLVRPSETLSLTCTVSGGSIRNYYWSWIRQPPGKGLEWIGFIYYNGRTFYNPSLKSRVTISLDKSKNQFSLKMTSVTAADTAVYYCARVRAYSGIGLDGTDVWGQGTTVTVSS VL: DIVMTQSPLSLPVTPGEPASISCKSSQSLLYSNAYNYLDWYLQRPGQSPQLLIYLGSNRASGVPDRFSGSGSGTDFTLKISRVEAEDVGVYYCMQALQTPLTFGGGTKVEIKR
**Result** 0.000615

**Query** Note koff for the binder shown: Antibody E1 (antibody, human IgG1, kappa, L234A L235A, V domains shown) VH: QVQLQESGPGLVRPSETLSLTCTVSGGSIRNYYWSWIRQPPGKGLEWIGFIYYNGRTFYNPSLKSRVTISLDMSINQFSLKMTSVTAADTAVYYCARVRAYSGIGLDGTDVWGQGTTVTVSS VL: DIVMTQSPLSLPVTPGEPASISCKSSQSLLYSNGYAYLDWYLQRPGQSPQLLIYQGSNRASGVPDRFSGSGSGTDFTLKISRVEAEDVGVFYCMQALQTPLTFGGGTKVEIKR
**Result** 0.00033

**Query** Note koff for the binder shown: Antibody E18 (antibody, human IgG1, kappa, L234A L235A, V domains shown) VH: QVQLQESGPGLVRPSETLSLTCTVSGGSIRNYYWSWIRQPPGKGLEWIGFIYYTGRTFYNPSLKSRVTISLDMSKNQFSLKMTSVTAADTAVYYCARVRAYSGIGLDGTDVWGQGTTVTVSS VL: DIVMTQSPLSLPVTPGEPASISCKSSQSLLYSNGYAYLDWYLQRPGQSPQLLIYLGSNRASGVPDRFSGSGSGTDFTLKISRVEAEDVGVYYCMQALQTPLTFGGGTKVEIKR
**Result** 0.000443

**Query** Note koff for the binder shown: Antibody A12 (antibody, human IgG1, kappa, L234A L235A, V domains shown) VH: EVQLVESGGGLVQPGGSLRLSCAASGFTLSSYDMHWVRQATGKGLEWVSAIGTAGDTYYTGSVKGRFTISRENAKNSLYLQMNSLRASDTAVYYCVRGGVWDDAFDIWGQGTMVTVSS VL: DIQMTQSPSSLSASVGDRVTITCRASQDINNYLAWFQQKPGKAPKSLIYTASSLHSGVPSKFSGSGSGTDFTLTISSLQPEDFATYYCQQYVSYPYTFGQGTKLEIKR
**Result** 0.00689

**Query** Note koff for the binder shown: Antibody E21 (antibody, human IgG1, kappa, L234A L235A, V domains shown) VH: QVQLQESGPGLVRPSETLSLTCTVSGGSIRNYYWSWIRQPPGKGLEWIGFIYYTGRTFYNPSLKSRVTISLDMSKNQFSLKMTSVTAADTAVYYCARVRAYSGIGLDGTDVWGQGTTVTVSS VL: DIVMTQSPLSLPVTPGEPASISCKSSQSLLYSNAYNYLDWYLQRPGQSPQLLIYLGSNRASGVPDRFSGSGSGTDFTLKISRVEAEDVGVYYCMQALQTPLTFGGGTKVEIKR
**Result** 0.000761

**Query** Note koff for the binder shown: Antibody A15 (antibody, human IgG1, kappa, L234A L235A, V domains shown) VH: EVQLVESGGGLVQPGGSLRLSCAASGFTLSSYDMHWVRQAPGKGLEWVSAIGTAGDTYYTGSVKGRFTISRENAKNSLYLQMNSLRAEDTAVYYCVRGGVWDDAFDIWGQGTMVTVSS VL: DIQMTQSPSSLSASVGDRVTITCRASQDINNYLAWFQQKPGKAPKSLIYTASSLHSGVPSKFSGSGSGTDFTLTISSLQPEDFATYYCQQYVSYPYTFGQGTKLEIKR
**Result** 0.00671
